- Tested on: HCV replicon system (Huh-luc/neo-ET cell carrying I389luc-ubi-NS3-3'/ET)
- method_description: Inhibition of the HCV replication by determining the firefly luciferase activity (HCV replicon system)
- Type: cell-based, Hepatitis C virus
- experimental_context: ratio of CC50/IC50
assay_readout: EW (CC50/IC50)

compound="C=CC(C)(O)CC/C=C(\\C)C(=O)OC1C(O)C(CO)OC(OC(=O)C23CCC(C)(C)CC2C2=CCC4C5(C)CCC(OC6OC(COC7OCC(O)C(O)C7OC7OCC(O)C(O)C7O)C(O)C(O)C6O)C(C)(C)C5CCC4(C)C2(C)CC3O)C1OC1OC(CO)C(OC2OCC(O)C(OC3OCC(O)C(O)C3O)C2O)C(O)C1O (stereo not drawn) [A26]" assay_readout="EW (CC50/IC50)" reported=85.24
compound="C=CC(C)(O)CC/C=C(\\C)C(=O)O[C@H]1[C@H](O)[C@@H](CO)OC(OC(=O)[C@]23CCC(C)(C)CC2C2=CCC4[C@@]5(C)CC[C@H](OC6O[C@H](COC7OC[C@H](O)[C@H](O)[C@H]7OC7OC[C@@H](O)[C@H](O)[C@H]7O)[C@@H](O)[C@H](O)[C@H]6O)C(C)(C)C5CC[C@@]4(C)[C@]2(C)CC3)[C@@H]1OC1OC(C)C(OC2OC[C@@H](O)[C@H](OC3OC[C@@H](O)[C@H](O)[C@H]3O)[C@H]2O)C(O)C1O (stereo partly drawn) [A25]" assay_readout="EW (CC50/IC50)" reported=178.08
compound="C=CC(C)(O)CCCC(C)C(=O)OC1C(OC2OCC(OC3OC(CO)C(O)C(O)C3O)C(OC3OCC(O)C(OC4OC(CO)C(O)C(O)C4O)C3O)C2O)COC(OC(=O)C23CCC(C)(C)CC2C2=CCC4C5(C)CCC(OC6OC(CO)C(OC7OC(CO)C(O)C(OC8OCC(O)C(O)C8O)C7O)C(O)C6O)C(C)(C)C5CCC4(C)C2(C)CC3O)C1O (stereo not drawn) [A10]" assay_readout="EW (CC50/IC50)" reported=126.13
